Hello, the source for this data is ChEMBL document CHEMBL4376864, in case you need it.

# testTarget: Chymase (Homo sapiens)
# Sequence (P23946 whole entry): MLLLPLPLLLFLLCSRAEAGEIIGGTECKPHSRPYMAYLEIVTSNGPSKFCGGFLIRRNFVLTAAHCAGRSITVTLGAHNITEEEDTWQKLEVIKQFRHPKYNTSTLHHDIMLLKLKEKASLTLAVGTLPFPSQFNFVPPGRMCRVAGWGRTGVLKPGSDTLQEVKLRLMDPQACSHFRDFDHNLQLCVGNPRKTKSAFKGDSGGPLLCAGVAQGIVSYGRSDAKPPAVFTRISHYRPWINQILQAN
# measurementNotes: Inhibition of recombinant human chymase expressed in Pichia pastoris X-33 cells using NleTDY-pNA as substrate assessed as cleavage of pNA at pH 7.2 and 298 K by spectrophotometry analysis
Bridge positions count the residues as written; N and C are the ends. Peptide text beside a SMILES is read from it.
outcomeMeasure: IC50

Task item: Field request: IC50 | item: CC[C@H](C)[C@@H]1NC(=O)[C@@H]2CCCN2C(=O)[C@@H]2CCCN2C(=O)[C@H]([C@@H](C)CC)NC(=O)[C@H](CO)NC(=O)[C@H](Cc2ccc(O)cc2)NC(=O)[C@H](CC(=O)O)NC(=O)[C@@H]2CSSC[C@H](NC1=O)C(=O)N[C@@H](Cc1ccccc1)C(=O)N1CCC[C@H]1C(=O)N[C@@H](CC(=O)O)C(=O)NCC(=O)N[C@@H](Cc1ccccc1)C(=O)N2 (cyclo(CDYSIPPICFPDGF); disulfide 1-9)
Reply: > 5 µM

###

# testTarget: Neutrophil elastase (Homo sapiens)
# Sequence (P08246 whole entry): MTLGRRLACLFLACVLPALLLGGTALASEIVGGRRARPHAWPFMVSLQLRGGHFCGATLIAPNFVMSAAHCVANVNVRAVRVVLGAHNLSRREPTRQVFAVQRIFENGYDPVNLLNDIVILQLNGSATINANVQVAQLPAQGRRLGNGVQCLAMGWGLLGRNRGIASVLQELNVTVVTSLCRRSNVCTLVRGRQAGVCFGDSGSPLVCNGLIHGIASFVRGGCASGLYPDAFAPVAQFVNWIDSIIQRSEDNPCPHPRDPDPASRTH
# measurementNotes: Inhibition of human neutrophil elastase using MeOSuc-AAPV-MCA as substrate at pH 7.2 and 298 K measured every 60 secs for 600 secs
pIC50: −log10 of the molar value. Bridge positions count the residues as written; N and C are the ends. Square brackets hold non-standard residues; d marks the D form. Peptide text beside a SMILES is read from it. Phe(4-NO2) = N[C@@H](Cc1ccc([N+](=O)[O-])cc1)C(=O)O; Phe(4-I) = N[C@@H](Cc1ccc(I)cc1)C(=O)O; Phe(4-Me) = Cc1ccc(C[C@H](N)C(=O)O)cc1
outcomeMeasure: pIC50

For orientation, consider the following solved cases.
Cc1ccc(C[C@@H]2NC(=O)[C@H](CCC(N)=O)NC(=O)[C@@H]3CSSC[C@H](NC(=O)[C@H](CCC(=O)O)NC(=O)[C@@H]4CCCN4C(=O)[C@@H]4CCCN4C(=O)[C@H](CCC(=O)O)NC(=O)[C@H](CO)NC2=O)C(=O)N[C@@H](Cc2ccccc2)C(=O)N2CCC[C@H]2C(=O)N[C@@H](CC(=O)O)C(=O)NCC(=O)N[C@@H](CCCNC(=N)N)C(=O)N3)cc1 (cyclo(CFPDGRCQ[Phe(4-Me)]SEPPE); disulfide 1-7) : < 5.00
N=C(N)NCCC[C@@H]1NC(=O)CNC(=O)[C@H](CC(=O)O)NC(=O)[C@@H]2CCCN2C(=O)[C@H](Cc2ccccc2)NC(=O)[C@@H]2CSSC[C@H](NC1=O)C(=O)N[C@@H](CCC(N)=O)C(=O)N[C@@H](Cc1ccc(I)cc1)C(=O)N[C@@H](CO)C(=O)N[C@@H](CCC(=O)O)C(=O)N1CCC[C@H]1C(=O)N1CCC[C@H]1C(=O)N[C@@H](CCC(=O)O)C(=O)N2 (cyclo(CFPDGRCQ[Phe(4-I)]SEPPE); disulfide 1-7) : < 5.00

Now look at this entry.
Task item: Field request: pIC50 | item: N=C(N)NCCC[C@@H]1NC(=O)CNC(=O)[C@H](CC(=O)O)NC(=O)[C@@H]2CCCN2C(=O)[C@H](Cc2ccccc2)NC(=O)[C@@H]2CSSC[C@H](NC1=O)C(=O)N[C@@H](CCC(N)=O)C(=O)N[C@@H](Cc1ccc([N+](=O)[O-])cc1)C(=O)N[C@@H](CO)C(=O)N[C@@H](CCC(=O)O)C(=O)N1CCC[C@H]1C(=O)N1CCC[C@H]1C(=O)N[C@@H](CCC(=O)O)C(=O)N2 (cyclo(CFPDGRCQ[Phe(4-NO2)]SEPPE); disulfide 1-7)
Reply: < 5.00
